Target: HLA-B*4002 (human)
Assay: competitive inhibition of labelled peptide binding to purified HLA
Conditions: remark: other sources report otherwise
quantity-kind: IC50 (nM)
Return type: number; implicit unit nM.

Dear colleague, I am looking for the recorded IC50 of the following binder: MEHLREVRAV [Her2/neu position 347, 10-mer]
160
